The values you see were collected from the NIST ThermoML archive (doi:10.1021/je025606c).

- Study conditions: 383.15 K; 1000 kPa; Liquid; Vibrating tube method
For each entry below, report its mass density value.
Answers are plain numbers, in kg/m3.

As a guide, the following entries are already answered.
>>> measured_value("COCC(C)OCC(C)OC (stereo not drawn) [2-methoxy-1-(2-methoxy-1-methylethoxy)propane]")
817.2
>>> measured_value("CCCCOCCOCCOCCCC [5,8,11-trioxapentadecane]")
807.9

Here is another compound to look at.
Looking up CCOCCOCCOCC [diethylene glycol diethyl ether] , I found its mass density recorded as 820.4
